Provide the reported self-aminoacylation of each item.
- System: biotinyl-Phe-oxazolone
- assayText: self-aminoacylation, catalytic enhancement (BFO) (fold over background); higher = more active; k-Seq, kA / k0A0; sequences stand for … in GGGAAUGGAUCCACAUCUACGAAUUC…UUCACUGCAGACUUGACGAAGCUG
Variants at the floor of the assay were thinned out.
One number for each entry.

>>> quantitativeresult("AUUCACCUCGGUCGUCGGGUG [Fam2.2 aminoacylation ribozyme variant]")
11.4
>>> quantitativeresult("AUUCACCUAGAUCAUCCGGUG [Fam2.2 aminoacylation ribozyme variant]")
17.8
>>> quantitativeresult("CCGAACUUCAAGCAAUCGGUC [Fam1B.1 aminoacylation ribozyme variant]")
34.4

The value of self-aminoacylation recorded for CUGCUUCAAACAAUCGGUUUG [Fam1A.1 aminoacylation ribozyme variant] when tested on biotinyl-Phe-oxazolone reads 223

====

Provide the reported self-aminoacylation of each item.
- Test system: biotinyl-Met-oxazolone
- assayText: self-aminoacylation, catalytic enhancement (BMO) (fold over background); higher = more active; k-Seq, kA / k0A0; sequences stand for … in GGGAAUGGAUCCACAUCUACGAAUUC…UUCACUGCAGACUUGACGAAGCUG
This sample holds only a part of the variants without activity.
Give bare numbers.

Some entries whose results are on file:
>>> quantitativeresult("CCACACGCCAAGCAAUCGGUC [Fam1B.1 aminoacylation ribozyme variant]")
1.29
>>> quantitativeresult("CCACUCGUCAAGCAAUCGGUC [Fam1B.1 aminoacylation ribozyme variant]")
1.18
>>> quantitativeresult("AUUAGCCUGGUCAUCGGGUGA [Fam2.1 aminoacylation ribozyme variant]")
10.1

State recorded self-aminoacylation for all listed sequences.
1. AUUACCCUGGUCAUCUGGUGA [Fam2.1 aminoacylation ribozyme variant]
2. CCACACUUGAAGCAAUUGGUC [Fam1B.1 aminoacylation ribozyme variant]
3. AUAACCCUGGUCCUCGAGUGA [Fam2.1 aminoacylation ribozyme variant]
4. AGGUUUGCUAAUAGUCCCAAG [Fam3.1 aminoacylation ribozyme variant]
5. CUACUUCAAACAAUCGAUCAG [Fam1A.1 aminoacylation ribozyme variant]
6. AUUACCCUGGUCAUCGAAUGC [Fam2.1 aminoacylation ribozyme variant]

1. 5
2. 0.63
3. 2.77
4. 0.915
5. 0.497
6. 0.827

====

- Tested on: biotinyl-Ile-oxazolone
- assayText: self-aminoacylation, catalytic enhancement (BIO) (fold over background); higher = more active; k-Seq, kA / k0A0; sequences stand for … in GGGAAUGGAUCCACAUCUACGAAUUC…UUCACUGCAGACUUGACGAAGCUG
Fewer inactive variants are shown than the library holds.
Provide the reported self-aminoacylation of each item.
Answers are plain numbers.

Some entries whose results are on file:
>>> quantitativeresult("CUACUUCAAACGAGCGGUCUG [Fam1A.1 aminoacylation ribozyme variant]")
0.8
>>> quantitativeresult("AUUCACUUAAGUCAUCGGGUG [Fam2.2 aminoacylation ribozyme variant]")
5.72
>>> quantitativeresult("CCACACUACAAGCAAUCUGUC [Fam1B.1 aminoacylation ribozyme variant]")
0.496
>>> quantitativeresult("CUACAUGAAACAAUCGGUCUG [Fam1A.1 aminoacylation ribozyme variant]")
0.828
>>> quantitativeresult("AAGUUUCCUAAUACUCGCAAG [Fam3.1 aminoacylation ribozyme variant]")
0.862

State recorded self-aminoacylation for all listed sequences.
1. AUUACCCAGGUCAUCGACUGA [Fam2.1 aminoacylation ribozyme variant]
2. AGGUUUGCUAAUAGUCGCAAG [Fam3.1 aminoacylation ribozyme variant]
3. AAGUUUGCGAAUAGUCGAAAG [Fam3.1 aminoacylation ribozyme variant]
4. AUACACCUAGAUCAUCGGGUG [Fam2.2 aminoacylation ribozyme variant]

1: 0.847; 2: 1.56; 3: 1.05; 4: 1.85
